B1: HDV Ribozyme (parent)
chain: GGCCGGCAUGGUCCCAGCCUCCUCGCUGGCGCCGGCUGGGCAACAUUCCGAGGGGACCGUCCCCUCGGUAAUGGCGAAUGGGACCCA

Variants of: B1
Experiment: self-cleavage, relative activity (ratio to wild type); higher = more cleavage; co-transcriptional
Value Type: self-cleavage
Just the number, please, no unit after it.

// solved cases for self-cleavage follow
Chain: GGCCGGCAUGGUCCCAGCCUCCUCGCUGGCGCCGGCGGGGCAACAUUCCGAGGGGACCGUCCCCUCGGUAAUGGCGAAUGGAACCCA [U37G G82A]
self-cleavage: 0.158
--
Chain: GGCCGGCAUGGUCCCAGCCUCCGCGCUGGCGCCGGUUGGGCAACAUUCCGAGGGGACCGUCCCCUCGGUAAUGGCGAAUGGGACCCA [U23G C36U]
self-cleavage: 0.386

Ask: # self-cleavage lookup, item GGCCGGCAUGGUCCCAGCCUCCUCGCUGGCGCCGGCUGGACAACAUUCCGAGGGGACCAUCCCCUCGGUAAUGGCGAAUGGGACCCA [G40A G59A]
Reply: 0.87

Ask: And for GGCCGGCAUGGUCCCAGCCUCCUCGCUGGCGCCGGCUGGGCAACAUUCCGAGUGGACCGUCCCCUCGGUAAUGGUGAAUGGGACCCA [G53U C75U] ?
Reply: 0.277

Ask: And for GGCCGGCAUGGGCCCAGCCUCCGCGCUGGCGCCGGCUGGGCAACAUUCCGAGGGGACCGUCCCCUCGGUAAUGGCGAAUGGGACCCA [U12G U23G] ?
Reply: 0.256
